Heads up, these compounds all have Kd values measured for Matrix metalloproteinase-14 (Homo sapiens, UniProt P50281).
# do not omit the unit; it follows the number

Oc1c(Cl)cc(Cl)c2cccnc12 [CHLOROXINE]    2400 nM

# context switch: different compound, same Kd
Query: Entry Oc1c(I)cc(Cl)c2cccnc12 [CLIOQUINOL] , system Matrix metalloproteinase-14 (Homo sapiens, UniProt P50281): what Kd was measured?
Response: 1200 nM

* * *

assay: Cytotoxicity against human HUVEC cells assessed as cell viability upto 100 uM incubated for 4 hrs by MTS assay; type: toxicity, cell-based; conditions: read-out: Activity
Property Name: viability at 4 h, up to 100 µM

Oc1c(I)cc(Cl)c2cccnc12    > 95%

Shift focus to the following entry.
Query: Record request: viability at 4 h, up to 100 µM value, item `Oc1c(Cl)cc(Cl)c2cccnc12`
Response: > 95%
